- experimental_system: T1, mutant human CD20 #4 (N166D) (human, UniProt P11836 1-297)
- T1 construct: Stably expressed on MG87 cells
- T1 sequence: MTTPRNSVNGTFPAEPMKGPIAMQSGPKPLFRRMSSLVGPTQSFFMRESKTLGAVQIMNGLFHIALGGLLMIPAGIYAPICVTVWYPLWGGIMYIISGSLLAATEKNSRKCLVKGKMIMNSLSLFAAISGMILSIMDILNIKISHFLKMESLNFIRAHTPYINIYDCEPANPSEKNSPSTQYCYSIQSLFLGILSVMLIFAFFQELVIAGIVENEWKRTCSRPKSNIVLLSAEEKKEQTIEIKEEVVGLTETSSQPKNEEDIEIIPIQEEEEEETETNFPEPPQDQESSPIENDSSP
- protocol_summary: FACS, mutant-hCD20 MG87 cells; 100%=best antibody
The binders listed here are annotated with their Percent of Binding to Mutant Human CD20.
Reply with just the number (in %).

3B9-10 (antibody, V domains shown, Fully human IgG, constant region not specified; also called 3B9-10N) VH: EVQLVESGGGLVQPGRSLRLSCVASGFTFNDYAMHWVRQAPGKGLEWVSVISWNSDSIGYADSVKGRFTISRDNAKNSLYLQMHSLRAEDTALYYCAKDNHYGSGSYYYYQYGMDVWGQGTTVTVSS VL: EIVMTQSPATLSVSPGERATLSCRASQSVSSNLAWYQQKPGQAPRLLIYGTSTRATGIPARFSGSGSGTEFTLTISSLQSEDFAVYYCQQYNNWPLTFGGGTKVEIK: 40
6B9-4 (antibody, V domains shown, Fully human IgG, constant region not specified; also called 6B9-4N) VH: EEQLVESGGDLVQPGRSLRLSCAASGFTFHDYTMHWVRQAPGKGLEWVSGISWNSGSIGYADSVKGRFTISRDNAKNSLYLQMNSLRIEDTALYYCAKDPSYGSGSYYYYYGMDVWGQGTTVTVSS VL: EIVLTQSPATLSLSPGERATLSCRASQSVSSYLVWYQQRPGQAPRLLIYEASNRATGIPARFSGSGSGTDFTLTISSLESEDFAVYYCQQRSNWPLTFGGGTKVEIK: 3

Next up:
// query I am curious: what Percent of Binding to Mutant Human CD20 value has been reported for 2B7-7 (antibody, V domains shown, Fully human IgG, constant region not specified; also called 2B7-7N) VH: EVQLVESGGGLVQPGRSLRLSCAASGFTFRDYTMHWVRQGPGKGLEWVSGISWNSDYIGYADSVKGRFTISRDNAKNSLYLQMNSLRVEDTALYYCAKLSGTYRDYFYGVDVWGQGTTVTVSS VL: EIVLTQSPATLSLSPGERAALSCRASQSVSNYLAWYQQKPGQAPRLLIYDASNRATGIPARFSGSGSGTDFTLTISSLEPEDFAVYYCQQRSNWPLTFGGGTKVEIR ?
// result 100
